- Test: Log P by HPLC on reversed phase columns (EEC directive 79/831 Annex V.A8)
- Format: physicochemical
- Test settings: reversed phase HPLC columns, value of the preparation example, method not marked
Assay endpoint: chromatographic logP

COC(=O)CNC(=O)c1sc(Cl)c(Cl)c1Cl
2.8
O=C(O)CNC(=O)c1sc(Cl)c(Cl)c1Cl
2.14
CCOC(=O)C1(NC(=O)c2sc(Cl)c(Cl)c2Cl)CC1
3.4
CCOC(=O)C1(NC(=O)c2sc(Cl)c(Cl)c2N)CC1
2.77

###

- Test: Log P by HPLC on reversed phase columns (EEC directive 79/831 Annex V.A8)
- Assay type: physicochemical
Marks after values point to notes of the source that are not given here.
Known LogP of a selection of molecules

Sample answers from the record:
C=CC1CC1(NC(=O)c1sc(Cl)c(Cl)c1Cl)C(=O)OC (mixture of isomers)
3.68^[a]
CCOC(=O)C(Cc1ccccc1)NC(=O)c1sc(Cl)c(Cl)c1Cl (racemic)
5.04^[a]
CC(C)CC(NC(=O)c1sc(Cl)c(Cl)c1Cl)C(=O)O (racemic)
3.62^[a]

// N#CCOC(=O)CNC(=O)c1sc(Cl)c(Cl)c1Cl : LogP value = 2.84^[a]

// CC(C)(C)OC(=O)CNC(=O)c1sc(Cl)c(Cl)c1Cl : LogP value = 4.27^[b]

// CCOC(=O)[C@H](CC(C)C)NC(=O)c1sc(Cl)c(Cl)c1Cl : LogP value = 5.16^[a]

Data provenance is patent US20230159486A1.
